// reported IC50 per item
# System: NEDD8 activating enzyme (Homo sapiens, UniProt Q8TBC4)
# Sequence (Q8TBC4 whole entry): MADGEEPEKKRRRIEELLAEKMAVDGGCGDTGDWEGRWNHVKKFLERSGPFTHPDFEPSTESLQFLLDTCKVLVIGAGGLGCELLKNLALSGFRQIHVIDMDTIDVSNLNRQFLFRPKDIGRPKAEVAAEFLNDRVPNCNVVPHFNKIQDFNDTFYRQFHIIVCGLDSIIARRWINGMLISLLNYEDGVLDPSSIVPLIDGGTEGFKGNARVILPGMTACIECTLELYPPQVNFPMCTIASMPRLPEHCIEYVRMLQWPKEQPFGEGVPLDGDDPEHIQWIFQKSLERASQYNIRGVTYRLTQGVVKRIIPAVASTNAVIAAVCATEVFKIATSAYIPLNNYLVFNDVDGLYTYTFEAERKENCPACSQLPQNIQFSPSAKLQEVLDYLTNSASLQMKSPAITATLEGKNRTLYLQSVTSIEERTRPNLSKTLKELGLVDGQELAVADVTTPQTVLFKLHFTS
# Sequence (Q13564 whole entry): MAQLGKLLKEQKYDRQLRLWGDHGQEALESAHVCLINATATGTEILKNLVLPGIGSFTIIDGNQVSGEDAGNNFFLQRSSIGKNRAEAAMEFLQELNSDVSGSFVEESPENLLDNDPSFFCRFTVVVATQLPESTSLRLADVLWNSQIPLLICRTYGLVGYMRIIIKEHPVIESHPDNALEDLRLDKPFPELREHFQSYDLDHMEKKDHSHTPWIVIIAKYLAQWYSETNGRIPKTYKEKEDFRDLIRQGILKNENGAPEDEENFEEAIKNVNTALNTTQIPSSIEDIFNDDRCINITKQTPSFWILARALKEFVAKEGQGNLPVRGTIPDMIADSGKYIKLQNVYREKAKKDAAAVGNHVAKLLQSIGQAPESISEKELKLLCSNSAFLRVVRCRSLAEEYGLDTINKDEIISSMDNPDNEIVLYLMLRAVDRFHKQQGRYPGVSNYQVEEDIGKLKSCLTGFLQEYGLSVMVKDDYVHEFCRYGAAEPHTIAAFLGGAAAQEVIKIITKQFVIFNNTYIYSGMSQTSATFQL
# Protocol notes: Inhibition of recombinant human NAEalpha/N-terminal His-tagged NAEbeta expressed in baculovirus infected insect Sf9 cells using N-terminal FLAG tagged Nedd8 as substrate incubated for 105 mins in presence of N-terminal GST-tagged Ubc12 by FRET assay
Quantity measured: IC50

Structure | Quantity measured | Value observed
NS(=O)(=O)OC[C@@H]1C[C@@H](Nc2cc(N[C@H]3CCc4ccccc43)ncn2)C[C@@H]1O | IC50 | ≤ 0.5 µM
Cc1nc(N)cc(N[C@@H]2C[C@H](COS(N)(=O)=O)[C@@H](O)[C@H]2O)n1 | IC50 | > 10 µM
NS(=O)(=O)OC[C@@H]1C[C@@H](Nc2ncnc3[nH]c(-c4cccc5c4oc4ccccc45)nc23)C[C@@H]1O | IC50 | ≤ 0.5 µM
NS(=O)(=O)OC[C@@H]1C[C@@H](Nc2ncnc3[nH]c(Cc4ccccc4)nc23)C[C@@H]1O | IC50 | ≤ 0.5 µM
NS(=O)(=O)OC[C@@H]1C[C@@H](Nc2ncnc3[nH]c(-c4cccc5c4CCCC5)nc23)C[C@@H]1O | IC50 | ≤ 0.5 µM
NS(=O)(=O)OC[C@@H]1C[C@@H](Oc2ncnc3nc(-c4cnn(Cc5ccccc5)c4)[nH]c23)C[C@@H]1O | IC50 | ≤ 0.5 µM
CC1(C)C[C@H](Nc2cc(N[C@@H]3C[C@H](COS(N)(=O)=O)[C@@H](O)[C@H]3O)ncn2)c2ccccc21 | IC50 | ≤ 0.5 µM
CN(C)c1ccc(-c2nc3c(N[C@@H]4C[C@@H](COS(N)(=O)=O)[C@@H](O)C4)ncnc3[nH]2)c2ccccc12 | IC50 | ≤ 0.5 µM
NS(=O)(=O)OC[C@H]1CC[C@H](Oc2ncnc3[nH]c(-c4cccc5ccccc45)nc23)C1 | IC50 | 0.5 to 10 µM
NS(=O)(=O)OC[C@H]1C[C@@H](Nc2nc(N[C@H]3CCc4ccccc43)ncc2F)[C@H](O)[C@@H]1O | IC50 | 0.5 to 10 µM
NS(=O)(=O)OC[C@H]1C[C@@H](Nc2ncnc(N[C@@H]3CCc4ccccc43)n2)[C@H](O)[C@@H]1O | IC50 | ≤ 0.5 µM
CN(C)c1ccc(-c2nc3ncnc(O[C@@H]4C[C@@H](COS(N)(=O)=O)[C@@H](O)C4)c3[nH]2)c2ccccc12 | IC50 | ≤ 0.5 µM
NS(=O)(=O)OC[C@@H]1C[C@@H](Oc2cc(OCc3cccc4ccccc34)ncn2)C[C@@H]1O | IC50 | 0.5 to 10 µM
NS(=O)(=O)OC[C@H]1C[C@@H](Nc2cc(N[C@H]3CCc4cc(F)c(F)cc43)ncn2)[C@H](O)[C@@H]1O | IC50 | ≤ 0.5 µM
NS(=O)(=O)OC[C@H]1C[C@@H](Nc2ccnc(NCc3ccccc3)n2)[C@H](O)[C@@H]1O | IC50 | 0.5 to 10 µM
NS(=O)(=O)OC[C@@H]1C[C@@H](Oc2ccncn2)C[C@@H]1O | IC50 | > 10 µM
